test system: K562/C1,000+ cells; assay: Cell proliferation assay (MTS/PMS), K562/C1,000+ P-glycoprotein overexpressing; format: cell-based, human; settings: Homo sapiens, 96 h; K562/C1,000+ P-glycoprotein overexpressing cells, 4-day incubation, mean ± SE of at least two experiments; read-out: Sensitivity to cell killing, IC50

{"columns": ["compound", "unit.abbrev", "IC50"],
 "data": [
  ["COc1cccc2c1C(=O)c1c(O)c3c(c(O)c1C2=O)C[C@@](O)(C(=O)CO)C[C@@H]3O[C@H]1C[C@H](N)[C@H](O)[C@H](C)O1 [Adriamycin, adriamycin]", "µM", 7.83]
]}
